- procedure summary: recombinant barcode read abundance after kanamycin selection (control-corrected) (log10(CPM+1)); higher = more efficient recombination; sequences stand for … in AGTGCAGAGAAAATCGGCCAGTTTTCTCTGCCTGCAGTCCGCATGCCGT…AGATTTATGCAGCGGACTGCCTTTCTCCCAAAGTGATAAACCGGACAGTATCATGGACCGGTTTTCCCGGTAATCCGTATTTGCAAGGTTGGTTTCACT; site = the 11-nt target
assay readout: recombinant barcode read abundance (log10)
Give bare numbers.

Examples from the recorded data:
- seq: "GGATCCTCTTGGGTTCTAACCTGTTGCAT (site GGCTCCTCTAT)"
  reported measurement: 0.149
- seq: "GCGCTTACTTGGGTTCTAACCTGTTGCCT (site GGGCTTACTAG)"
  reported measurement: 0.0205
- seq: "TCCAACACTTGGGTTCTAACCTGTTGCGG (site TCCAAACCTCC)"
  reported measurement: 0.00935

For the 3 sequences below, give their recombinant barcode read abundance (log10) values.
1. CTCCCTTCTTGGGTTCTAACCTGTTGCTT (site CTCCCTTCTAA)
2. GGTATGTCTTGGGTTCTAACCTGTTGCTT (site GCTATGTCTAG)
3. CGAATCGCTTGGGTTCTAACCTGTTGCCT (site CGAATCGCTAG)

Return:
1. 0.534
2. 0.0865
3. 0.994

====

- procedure summary: recombinant UMI read abundance after kanamycin selection (control-corrected) (log10(CPM+1)); higher = more efficient recombination; extreme values may be limits of the assay; sequences stand for … in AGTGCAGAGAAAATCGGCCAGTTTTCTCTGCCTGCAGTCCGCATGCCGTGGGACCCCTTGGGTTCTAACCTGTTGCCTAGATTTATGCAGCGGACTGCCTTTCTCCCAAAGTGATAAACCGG…AGGTTGGTTTCACT; site = the 11-nt donor
Please go through the items and note down their recombinant UMI read abundance (log10).
Give bare numbers.

Examples from the recorded data:
- seq: "CTCCAAGCATGGACCGGTTTTCCCGGTAATCCGTATTTGAG (site TTCCAAGCTCT)"
  recombinant UMI read abundance (log10): 0.018
- seq: "CCTAAAGCATGGACCGGTTTTCCCGGTAATCCGTATTTGAC (site CCTAAAGCTGT)"
  recombinant UMI read abundance (log10): 0
- seq: "ACAGTAGCATGGACCGGTTTTCCCGGTAATCCGTATTTGCA (site ACAGTAACTTG)"
  recombinant UMI read abundance (log10): 2.58
- seq: "GGATAGACATGGACCGGTTTTCCCGGTAATCCGTATTTGCT (site GGATAGACTCG)"
  recombinant UMI read abundance (log10): 0.855
- seq: "GGATCGACATGGACCGGTTTTCCCGGTAATCCGTATTTGCC (site GGATTGACTGG)"
  recombinant UMI read abundance (log10): 0
- seq: "GGGATGACATGGACCGGTTTTCCCGGTAATCCGTATTTGCT (site GGGATGACTAG)"
  recombinant UMI read abundance (log10): 2.32
- seq: "CTAGGATCATGGACCGGTTTTCCCGGTAATCCGTATTTGAC (site CTAGGATCTGT)"
  recombinant UMI read abundance (log10): 1.9
- seq: "AATCAACCATGGACCGGTTTTCCCGGTAATCCGTATTTGGT (site AATCAACCTAC)"
  recombinant UMI read abundance (log10): 0.00613
- seq: "ACAAGGACATGGACCGGTTTTCCCGGTAATCCGTATTTGCG (site ACAAGGACTCG)"
  recombinant UMI read abundance (log10): 2.42
- seq: "TACCTGACATGGACCGGTTTTCCCGGTAATCCGTATTTGCT (site TACTTGACTAG)"
  recombinant UMI read abundance (log10): 0

For the 8 sequences below, give their recombinant UMI read abundance (log10) values.
1. CCCTTCTCATGGACCGGTTTTCCCGGTAATCCGTATTTGAG (site CCCTTCTCTCG)
2. GTGGACGCATGGACCGGTTTTCCCGGTAATCCGTATTTGTG (site GTGGATGCTCA)
3. ACTGAAGCATGGACCGGTTTTCCCGGTAATCCGTATTTGTA (site ACTGAAGCTTA)
4. ATGGAGACATGGACCGGTTTTCCCGGTAATCCGTATTTGGT (site ATTGAGACTAC)
5. CTGGAAACATGGACCGGTTTTCCCGGTAATCCGTATTTGTA (site CTGGAAACTTC)
6. AAGCGTCCATGGACCGGTTTTCCCGGTAATCCGTATTTGAT (site AATCGTCCTAT)
7. CTCCATACATGGACCGGTTTTCCCGGTAATCCGTATTTGAG (site CTCCATACTCT)
8. GTGGATACATGGACCGGTTTTCCCGGTAATCCGTATTTGCA (site GTGGATACTTG)

Return:
[0.01, 0.653, 2.5, 0.681, 0.294, 0.017, 1.27, 1.84]

====

Please go through the items and note down their recombinant barcode read abundance (log10).
- procedure summary: recombinant barcode read abundance after kanamycin selection (control-corrected) (log10(CPM+1)); higher = more efficient recombination; sequences stand for … in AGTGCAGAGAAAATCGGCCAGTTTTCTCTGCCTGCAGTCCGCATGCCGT…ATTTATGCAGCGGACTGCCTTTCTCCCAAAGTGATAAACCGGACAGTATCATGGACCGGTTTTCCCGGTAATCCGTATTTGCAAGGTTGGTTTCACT; site = the 11-nt target

Examples from the recorded data:
- seq: "GGGCGTGCATGGGTTCTAACCTGTTGCCTAG [GGGCGTGCTAG_LTGcore_CA_RTGcore_CT] (site GGGCGTGCTAG) (LTG core: CA, RTG core: CT)"
  reported measurement: 0.233
- seq: "AGGCGGTTGTGGGTTCTAACCTGTTGCTTAG [AGGCGGTCTAA_LTGcore_TG_RTGcore_CT] (site AGGCGGTCTAA) (LTG core: TG, RTG core: CT)"
  reported measurement: 0.113
- seq: "GGGCGGACCTGGGTTCTAACCTGTTGCGGAG [GGGCGGACTCC_LTGcore_CC_RTGcore_CT] (site GGGCGGACTCC) (LTG core: CC, RTG core: CT)"
  reported measurement: 1.4

For the 2 sequences below, give their recombinant barcode read abundance (log10) values.
1. CGAGCCCCTTGGGTTCTAACCTGTTGCTGAT [CGAGCCCCTCA_LTGcore_CT_RTGcore_AT] (site CGAGCCCCTCA) (LTG core: CT, RTG core: AT)
2. AGGCGGGCTTGGGTTCTAACCTGTTGCGGAT [AGGCGGGCTCC_LTGcore_CT_RTGcore_AT] (site AGGCGGGCTCC) (LTG core: CT, RTG core: AT)

Return:
0.29
0.513

====

- procedure summary: recombinant barcode read abundance after kanamycin selection (control-corrected) (log10(CPM+1)); higher = more efficient recombination; sequences stand for … in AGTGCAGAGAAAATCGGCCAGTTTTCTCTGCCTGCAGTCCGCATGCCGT…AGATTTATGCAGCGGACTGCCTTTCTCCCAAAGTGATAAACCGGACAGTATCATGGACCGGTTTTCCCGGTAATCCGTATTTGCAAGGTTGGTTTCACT; site = the 11-nt target
assay readout: recombinant barcode read abundance (log10)

Examples from the recorded data:
- seq: "CTCACGACTTGGGTTCTAACCTGTTGCAG (site CTCACGACTCT)"
  reported measurement: 0.273
- seq: "TCCATAACTTGGGTTCTAACCTGTTGCCT (site TCCATAACTAG)"
  reported measurement: 0.14

For the 3 sequences below, give their recombinant barcode read abundance (log10) values.
1. TCTAATTCTTGGGTTCTAACCTGTTGCGT (site TCTAATTCTAC)
2. CTAACCTCTTGGGTTCTAACCTGTTGCTG (site CTAACCTCTAA)
3. GGGGACCCTTGGGTTCTAACCTGTTGCGG (site GGGGACCCTCC)

Return:
1: 0.095; 2: 0.0311; 3: 3.01

====

- procedure summary: recombinant barcode read abundance after kanamycin selection (control-corrected) (log10(CPM+1)); higher = more efficient recombination; sequences stand for … in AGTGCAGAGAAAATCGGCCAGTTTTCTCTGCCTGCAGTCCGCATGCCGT…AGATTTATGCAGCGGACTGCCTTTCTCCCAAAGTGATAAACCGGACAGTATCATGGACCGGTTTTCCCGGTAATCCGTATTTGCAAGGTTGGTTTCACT; site = the 11-nt target
assay readout: recombinant barcode read abundance (log10)

Examples from the recorded data:
- seq: "GATCCTACTTGGGTTCTAACCTGTTGCCT (site GGTCCTACTAG)"
  reported measurement: 0.346
- seq: "ACGCAATCTTGGGTTCTAACCTGTTGCCT (site ACGCATTCTAG)"
  reported measurement: 0.157
- seq: "GGCACCACTTGGGTTCTAACCTGTTGCCT (site GGCACTACTAG)"
  reported measurement: 0.0174
- seq: "TAGCTCCCTTGGGTTCTAACCTGTTGCCG (site TAGCTCCCTAG)"
  reported measurement: 0.475
- seq: "ATAACCTCTTGGGTTCTAACCTGTTGCCT (site ATAACCTCTAG)"
  reported measurement: 2
- seq: "TAGAGCTCTTGGGTTCTAACCTGTTGCGT (site TAGAACTCTAC)"
  reported measurement: 0.246
- seq: "CATCGCTCTTGGGTTCTAACCTGTTGCTT (site CATCGCTCTAA)"
  reported measurement: 0.0993
- seq: "AGGTTTGCTTGGGTTCTAACCTGTTGCCT (site AGGTATGCTAG)"
  reported measurement: 0.168

For the 3 sequences below, give their recombinant barcode read abundance (log10) values.
1. TACATCCCTTGGGTTCTAACCTGTTGCCC (site TACATCCCTTG)
2. ACATGTACTTGGGTTCTAACCTGTTGCCG (site ACATGTACTCA)
3. GCTAAGTCTTGGGTTCTAACCTGTTGCGT (site GCGGAGTCTAC)

Return:
0.0347
0.0415
0.166

For the 5 sequences below, give their recombinant barcode read abundance (log10) values.
1. TACGAGGCTTGGGTTCTAACCTGTTGCCT (site TACGGGGCTAG)
2. CAAAGGCCTTGGGTTCTAACCTGTTGCCT (site CAAGGGCCTAG)
3. TTGAAATCTTGGGTTCTAACCTGTTGCCT (site TTGAGATCTAG)
4. GTCGTCGCTTGGGTTCTAACCTGTTGCCT (site GTCGTCCCTAG)
5. TGGGTCCCTTGGGTTCTAACCTGTTGCCT (site TGTGTCCCTAG)

Return:
1. 0.0616
2. 0.228
3. 0.0296
4. 0.0726
5. 0.0764

For the 5 sequences below, give their recombinant barcode read abundance (log10) values.
1. GACGGACCTTGGGTTCTAACCTGTTGCTT (site GACGGACCTAA)
2. CGTTCGACTTGGGTTCTAACCTGTTGCCT (site CGTTCAACTAG)
3. CCTACATCTTGGGTTCTAACCTGTTGCTA (site CCTACATCTAT)
4. GTGCGGACTTGGGTTCTAACCTGTTGCGT (site GTGAGGACTAC)
5. AGCAGCACTTGGGTTCTAACCTGTTGCCT (site AGCAGCACTAG)

Return:
1: 0.832; 2: 0.0692; 3: 0.177; 4: 0.676; 5: 0.731

The origin of these recorded values is the supplement of paper PMC11208160.
